Where do the numbers come from? From PubChem BioAssay.

assay: STAT1 reporter inhibitors, IFN-gamma induced, confirmation, counter-screen for STAT3 inhibitor project, cell-based, NIH 3T3, luciferase luminescence (AID 1317); details: NIH 3T3 STAT1-luciferase reporter, at 5.7 µM, active compounds read high;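 note: 0% = DMSO with IFN-gamma and 100% = nifuroxazide control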
The list shows a part of the results.
Entries and their inhibition
Give just the number in %; leave the unit off.

Some entries whose results are on file:
COc1ccc(Nc2ncc(F)c(N3CCOCC3)n2)cc1 | -107
COc1cccc(/C=C/c2ccc3ccccc3n2)c1OC(C)=O | -9.23

Give the measured inhibition for `COc1cccc(-c2nc3cc(C)ccc3o2)c1` -109

====

molecular target: Nuclear receptor subfamily 5 group A member 2 (Homo sapiens) (UniProt O00482); experiment: LRH-1 (NR5A2) inverse agonists, retest, confirmation, cell-based, luminescence (AID 651613); conditions: cell-based LRH-1 luciferase reporter, inverse agonism; at 3.6 µM; active compounds read high;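 note: HEK293T cells co-transfected with LRH-1 and StAR promoter luciferase reporter; 0% = vehicle wells and 100% = parental cells lacking receptor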
Sequence (O00482 whole entry, looked up): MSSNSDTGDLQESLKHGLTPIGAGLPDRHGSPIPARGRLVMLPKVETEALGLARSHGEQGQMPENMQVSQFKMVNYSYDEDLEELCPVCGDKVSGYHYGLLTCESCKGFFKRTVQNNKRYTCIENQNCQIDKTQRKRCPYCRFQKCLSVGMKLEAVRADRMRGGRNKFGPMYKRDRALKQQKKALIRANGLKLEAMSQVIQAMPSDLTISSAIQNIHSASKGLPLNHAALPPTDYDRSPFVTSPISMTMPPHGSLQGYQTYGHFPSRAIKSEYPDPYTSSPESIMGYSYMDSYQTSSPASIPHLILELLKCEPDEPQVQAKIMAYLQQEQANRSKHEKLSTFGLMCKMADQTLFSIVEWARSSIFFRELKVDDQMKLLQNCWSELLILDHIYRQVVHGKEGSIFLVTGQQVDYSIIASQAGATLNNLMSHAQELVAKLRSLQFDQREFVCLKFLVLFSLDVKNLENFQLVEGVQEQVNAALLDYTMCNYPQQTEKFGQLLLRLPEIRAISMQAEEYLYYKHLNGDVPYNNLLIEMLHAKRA
measure: inhibition (%)
Give just the number in %; leave the unit off.

Some entries whose results are on file:
O=C(c1ccc(Oc2ccc([N+](=O)[O-])cc2Cl)cc1)N1CCCC1 | 46.2
CCN(CC)c1ccc(/C=N/NC(=O)c2c(Cl)cnn2C)c(O)c1 | 96.4
COC(=O)c1ccc(CNC(=O)COC(=O)c2cc(Cl)nc(Cl)c2)cc1 | 52.4
COc1ccc(-c2oc3ccc(N4CCOCC4)cc3c2C#CCO)cc1 | 55.7
O=C(Nc1nc2cc3c(cc2s1)OCCO3)C1=COCCO1 | -3.27
Cc1ccc(-c2nc3ncccc3o2)cc1NC(=O)c1ccc([N+](=O)[O-])o1 | 57.8
Cc1cc(SC#N)cc(C)c1NC(=O)CCl | 52.8
Cc1cc(NC(=O)c2ccc([N+](=O)[O-])o2)ccc1NC(=O)c1ccco1 | 50.6
COc1cc([N+](=O)[O-])ccc1NC(=O)Cn1ccsc1=N | 59.9
O=C(NCCOc1cccnc1)c1ccc(OC2CCN(Cc3ccccn3)CC2)cc1 | 105

Give the measured inhibition for `Nc1cc2c3c(cccc3c1)C(=O)N(CCN1CCCC1)C2=O` 66.6

Give the measured inhibition for `COc1ccc(-c2n(Cc3ccccc3)c3ccccc3[n+]2Cc2ccccc2)cc1` 109

Give the measured inhibition for `COc1cc2nc(/C=C/c3cc(OC)c(OC)c(OC)c3)sc2cc1SC` 45.1

Give the measured inhibition for `Cc1ccc(NC(=O)C2=C(c3ccccc3)S(=O)(=O)CCS2(=O)=O)cc1` -4.23

Give the measured inhibition for `COc1ccc(C(=O)N/N=C(\c2ccccc2)c2ccccn2)cc1` 80.3

Give the measured inhibition for `O=C(Cc1ccccc1)N/N=C/c1ccc([N+](=O)[O-])s1` 60

Give the measured inhibition for COc1ccc(C2(C)NC(=O)N(CC(=O)Nc3ccc(C)cc3Br)C2=O)cc1OC (stereo not drawn) 40.8

Give the measured inhibition for `Cc1ccc(NC(=O)COC(=O)CCC2CCCC2)c(Br)c1` 40.9
